assay: AUC in NMRI mouse at 0.5 mg/kg, po; type: ADME, organism-based; set-up: dose 0.5 mg/kg, route oral; conditions: plasma
result.type: AUC (ng·h/mL)
# number only, unit ng·h/mL dropped from output

In [3]: df
Out[3]:
                         chemical_structure  result_type  value_observed
0  Cn1cc(-c2ccc(-c3cncc(Cl)c3N3CCC4(CCNC4=O)CC3)cc2)cn1          AUC             143

Please find the next molecule below.
# molecule O=C1NCCC12CCN(c1c(Cl)cncc1-c1ccc(N3CCOCC3)cc1)CC2 ; its AUC = 7.4
